# protocolSummary: Inhibition of rat intestinal amyloglucosidase
recordedMetric: IC50 (µM)
Number only, in µM; omit the unit.

Previously resolved entries follow.
>>> observedmeasurement("C[C@@H]1C[C@H](O)[C@@H]2[C@H](O)[C@H](O)[C@@H](CO)N21 (relative stereo)")
110
>>> observedmeasurement("C[C@@H]1C[C@H](O)[C@@H]2[C@@H](O)[C@H](O)[C@@H](CO)N21 (relative stereo)")
89
>>> observedmeasurement("C[C@@H]1CC[C@@H]2[C@@H](O)[C@@H](O)[C@@H](CO)N12 (relative stereo)")
110

Field: next compound
For C[C@@H]1C[C@@H](O)[C@@H]2[C@H](O)[C@H](O)[C@@H](CO)N21 the compound record lists IC50 as 51
